Values from PubChem BioAssay (NCI)

Tested on: ACHN renal
method_summary: NCI tumour cell line growth inhibition, 48 h
measurement_kind: TGI

compound	measurement_kind	value_measured
COc1cc(/C=C/C(=O)c2ccc(Nc3nc(Nc4ccc(F)cc4)nc(Nc4ccc(F)cc4)n3)cc2)cc(OC)c1OC	TGI	> 100 µM
COc1cc(-c2ccc(-c3ccc(C(=N)N)s3)s2)cc(OC)c1OC	TGI	3.17 µM
COc1ccc(C2CC(c3cc(OC)c(OC)c(OC)c3)=NN2)cc1 (stereo not given)	TGI	> 100 µM
CCCCCCCCSC1=CC(=O)C(OC)=C(OC)C1=O	TGI	2.98 µM
CN(C)CCn1cc(-c2ccc3c(Nc4ccc(CC(=O)Nc5cccc(F)c5)cc4)ncnc3c2)cn1	TGI	> 10 µM
N#C/C(=C/N1CCN(C(=O)c2ccco2)C1=S)C(N)=O	TGI	38.8 µM
COC(=O)C1Cc2c([nH]c3ccccc23)C=N1 (stereo not given)	TGI	> 100 µM
O=Cc1ccc(C(F)(F)F)cc1.[C-]#[O+].[C-]#[O+].[C-]#[O+].[Cr]	TGI	> 100 µM
COc1ccc(N(C(=O)OC(C)(C)C)[C@@H]2C(C)=C[C@H]([S@@](=O)c3ccc(C)cc3)[C@@H]3C(=O)N(C)C(=O)[C@@H]32)cc1	TGI	43.8 µM
Cc1cc(SCC(=O)c2ccc(Br)cc2)cc(C)[o+]1	TGI	96.2 µM
CCOC1NC(=O)Oc2ccccc21 (stereo not given)	TGI	> 100 µM
CC(C)(C)c1ccc(-c2nnc(SCc3ccc(Cl)cc3)n2-c2cccc(C(F)(F)F)c2)cc1	TGI	> 100 µM
Cc1c(Cl)cccc1NC(=O)C(=O)C1C(=O)NC(=O)NC1=O	TGI	> 100 µM
Cc1ccccc1NC(=O)c1[nH]c(=S)nc(N)c1-c1ccccc1C	TGI	> 100 µM
CC(=O)NC1C(OCC(=O)NC(C)C(=O)NC(CCC(=O)NCCCCCNc2ccc([N+](=O)[O-])c3[nH]c4ccccc4c(=O)c23)C(N)=O)C(O)C(CO)OC1(C)OCc1ccccc1 (stereo not given)	TGI	> 50 µM

* * *

In this section we review reported GI50 values for a set of compounds.
System: 786-0 renal
method_summary: NCI tumour cell line growth inhibition, 48 h
measurement_kind: GI50

> print(dat)
                                   compound  measurement.kind  value.measured
1    COc1ccc2c(CNCCCCO)cc3cc4c(cc3c2c1)OCO4              GI50         1630 nM
2  CC1=C(C(=O)Nc2ccc(F)c(Cl)c2)C(c2cccc(Cl)c2)NC(=O)N1 (stereo not drawn)              GI50        17400 nM
3  COc1cc2c(/C=C3\C(=O)Nc4ccc(Br)cc43)c(Cl)n(C)c2cc1C              GI50          998 nM
4  O=C1c2cccc3cccc(c23)C(=O)N1CCCCOc1ccc(-c2nc3ccc(N4CCOCC4)cc3[nH]2)cc1              GI50         1280 nM
5  O=Cc1ccc(C(F)(F)F)cc1.[C-]#[O+].[C-]#[O+].[C-]#[O+].[Cr]              GI50        13100 nM
6  C[n+]1c2ccccc2c(NC2CCNCC2)c2[nH]c3ccccc3c21              GI50         2460 nM
7  COC(=O)c1oc2c(C(=O)/C=C/c3ccc(OC)cc3)c(OCCCN3CCCCC3)ccc2c1C              GI50         1490 nM
8  NS(=O)(=O)c1ccc(-n2nc(-c3ccc(Cl)cc3)cc2C2=CC(=O)C=CC2=O)cc1              GI50        19800 nM

* * *

System: SR leukemia
method_summary: NCI tumour cell line growth inhibition, 48 h
measurement_kind: GI50

> print(dat)
                           structure.string  system.tested  measurement.kind  value.measured
1  CO/N=C1/c2cc(OC)ccc2-c2c(NOC)nc3ccccc3c21    SR leukemia              GI50         38.7 µM
2         CCCNc1nc(-c2ccc(OC)cc2)nc2ccccc12    SR leukemia              GI50         13.8 µM
3  NS(=O)(=O)c1ccc(-n2nc(-c3ccc(Cl)cc3)cc2C2=CC(=O)C=CC2=O)cc1    SR leukemia              GI50         26.7 µM
4  COc1cc2c(/C=C3\C(=O)Nc4ccc(Br)cc43)c(Cl)n(C)c2cc1C    SR leukemia              GI50         1.42 µM

* * *

Readings of TGI for the listed compounds
System: M19-MEL melanoma
method_summary: NCI tumour cell line growth inhibition, 48 h
measurement_kind: TGI (µM)

> print(dat)
                                   compound  modifier  value.measured
1  O=C(OCCOCCOC(=O)c1c[nH]cc1-c1ccccc1)c1c[nH]cc1-c1ccccc1         =              34
2      CCN(CCCl)CCNc1c2ccccc2nc2ccc(OC)cc12         =            2.24
3  C[Si](C)(C)/C(Br)=C\CCN1C(=O)CCC1O (stereo not drawn)         >             100

* * *

Test system: SK-MEL-28 melanoma
method_summary: NCI tumour cell line growth inhibition, 48 h
Known log10 of TGI of a selection of compounds
measurement_kind: log10 of TGI (log10 of the value in µM)

> print(dat)
                                    compound  measurement.kind  value.measured
 1                  CSC(=S)N/N=C(\C)c1ccccn1      log10 of TGI            1.24
 2  O=Nc1c(-c2cccc([N+](=O)[O-])c2)nc2ncccn12      log10 of TGI            1.48
 3  C=C1C(=O)O[C@H]2[C@H]1CC/C(COC(=O)CCC(=O)OC/C1=C/CC[C@@]3(C)O[C@H]3[C@H]3OC(=O)C(=C)[C@@H]3CC1)=C\CC[C@@]1(C)O[C@@H]21      log10 of TGI            0.60
 4           CCOC(=O)C(=Cc1ccccc1Br)C(=O)OCC      log10 of TGI            0.76
 5  C=C1C(=O)O[C@H]2C1C[C@@H](O)[C@@]1(C)OC1CC[C@@]1(C)O[C@H]21 (stereo partly drawn)      log10 of TGI            1.59
 6  Cc1nc2cc(O)c(O)cc2cc1Oc1ccc(NC(=O)Nc2ccc(Cl)c(Cl)c2)cc1      log10 of TGI            1.48
 7  C[n+]1c2ccccc2c(NC2CCNCC2)c2[nH]c3ccccc3c21      log10 of TGI            0.47
 8  CC(C)(C)CC(C)(C)Cc1ccc(OCCOCC[N+](C)(C)Cc2ccccc2)cc1      log10 of TGI            0.49
 9  O=C1c2cccnc2-c2nc(-c3ccc([N+](=O)[O-])cc3)cc3c2c1nc1ccccc13      log10 of TGI            1.44
10         CCCNc1nc(-c2ccc(OC)cc2)nc2ccccc12      log10 of TGI            1.73
11  CCCCOC(=O)N[C@H]1CCc2cc(OC)c(OC)c(OC)c2-c2ccc(SC)c(=O)cc21      log10 of TGI            1.21
12  COc1cc(O)c(C(=O)/C=C/c2ccc(O)cc2)cc1Oc1ccc(C(=O)/C=C/c2ccc(O)cc2)c(O)c1      log10 of TGI            0.61
13  CC1=C(C(=O)Nc2ccc(F)c(Cl)c2)C(c2cccc(Cl)c2)NC(=O)N1 (stereo not drawn)      log10 of TGI            1.45

* * *

System: NCI-H522 lung
method_summary: NCI tumour cell line growth inhibition, 48 h
Where a SMILES comes first, the peptide text is derived from it. [ ]: non-standard residue; d: D form. The star is where a group is joined. ξ: configuration not given here. X37 = O=C(OCc1ccccc1)[C@@H]1CCC[C@H]1N*; Fmoc = O=C(OCC1c2ccccc2-c2ccccc21)*; ξW = NC(Cc1c[nH]c2ccccc12)C(=O)O; ξF = NC(Cc1ccccc1)C(=O)O; Boc = CC(C)(C)OC(=O)*; ξK = NCCCCC(N)C(=O)O; ξT = CC(O)C(N)C(=O)O; tBu = CC(C)(C)*
measurement_kind: TGI

compound	value_measured
NCCOc1ccccn1	> 100 µM
CC(OC(C)(C)C)C(NC(=O)C(CCCCNC(=O)OC(C)(C)C)NC(=O)C(Cc1c[nH]c2ccccc12)NC(=O)C(Cc1ccccc1)NC(=O)OCC1c2ccccc2-c2ccccc21)C(=O)NC(Cc1ccccc1)C(=O)N[C@@H]1CCC[C@H]1C(=O)OCc1ccccc1 (stereo partly drawn) (Fmoc-[ξF][ξW][ξK](Boc)[ξT](tBu)[ξF]-X37)	> 100 µM
CCN(CC)P1(=S)Oc2ccc3ccccc3c2-c2c(ccc3ccccc23)O1	> 100 µM
